Data credit: patent US6348317B1

Biological target: T1, TO-ZF (thiazole orange-GR zinc finger conjugate) (UniProt P06536 SEQ:1-28)
T1 chain: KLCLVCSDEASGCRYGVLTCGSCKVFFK
Experiment: TO fluorescence titration; same buffer
Conditions: protein: synthetic; tags: thiazole orange on Lys epsilon-amine (first residue coupled to resin); synthetic solid-phase peptide (text states 29 aa, listing 28 aa), Zn-loaded
Measurement Type: pKd
FYI, pKd means -log10 of a concentration in mol per litre.

Q: Recorded pKd for GRE2 (dsDNA) DNA 1: TGATACGGCTGACTGTTCTATGA DNA 2: TCATAGAACAGTCAGCCGTATCA , please?
Ans: 7.60
